Entries with reported Ki on UniProt:P28221
Sequence (P28221 whole entry): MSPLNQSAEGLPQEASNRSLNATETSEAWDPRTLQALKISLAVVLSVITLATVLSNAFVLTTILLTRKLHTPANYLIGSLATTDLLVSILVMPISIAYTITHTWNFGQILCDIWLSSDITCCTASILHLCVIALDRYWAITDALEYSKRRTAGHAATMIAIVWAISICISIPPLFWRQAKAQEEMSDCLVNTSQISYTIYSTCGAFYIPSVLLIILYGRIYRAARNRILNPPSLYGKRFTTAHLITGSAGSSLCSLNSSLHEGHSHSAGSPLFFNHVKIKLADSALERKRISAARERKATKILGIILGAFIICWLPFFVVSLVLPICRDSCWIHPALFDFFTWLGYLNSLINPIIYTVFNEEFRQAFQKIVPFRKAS
Write the number in nM without appending the unit.

Worked cases, Ki given:
# compound, test_system, readout_label, reading
records = [
    ("CCN(CCCNC(=O)c1cc2ccccc2[nH]1)CCNC(=O)c1cc(Br)cc(OC)c1OC [21d]", "UniProt:P28221", "Ki", 1660),
    ("CCN(CCCNC(=O)c1cc2ccccc2n1C)CCNC(=O)c1cc(Br)cc(OC)c1OC [21j]", "UniProt:P28221", "Ki", 1930),
    ("CCN(CCCNC(=O)c1ccsc1)CCNC(=O)c1cc(Br)cc(OC)c1OC [21i]", "UniProt:P28221", "Ki", 3140),
    ("CCN(CCCNC(=O)c1ccc(-c2cccs2)cc1)CCNC(=O)c1cc(Br)cc(OC)c1OC [9a]", "UniProt:P28221", "Ki", 1010),
    ("CCN(CCCNC(=O)c1ccc(-c2ccsc2)cc1)CCNC(=O)c1cc(Br)cc(OC)c1OC [21g]", "UniProt:P28221", "Ki", 1820),
    ("CCN(CCCNC(=O)c1ccc2ccccc2c1)CCNC(=O)c1cc(Br)cc(OC)c1OC [21a]", "UniProt:P28221", "Ki", 1200),
    ("CCN(CCCNC(=O)c1ccc(-c2ccncc2)cc1)CCNC(=O)c1cc(Br)cc(OC)c1OC [21c]", "UniProt:P28221", "Ki", 1150),
]

Would you kindly look at the next entry?
stdin: Quote UniProt:P28221 Ki for entry CCCN(CCCNC(=O)c1ccc(-c2cccs2)cc1)CCNC(=O)c1cc(Br)cc(OC)c1OC [20a] .
stdout: 449
